biological target: Factor X, P00742
Sequence (P00742 whole entry, looked up): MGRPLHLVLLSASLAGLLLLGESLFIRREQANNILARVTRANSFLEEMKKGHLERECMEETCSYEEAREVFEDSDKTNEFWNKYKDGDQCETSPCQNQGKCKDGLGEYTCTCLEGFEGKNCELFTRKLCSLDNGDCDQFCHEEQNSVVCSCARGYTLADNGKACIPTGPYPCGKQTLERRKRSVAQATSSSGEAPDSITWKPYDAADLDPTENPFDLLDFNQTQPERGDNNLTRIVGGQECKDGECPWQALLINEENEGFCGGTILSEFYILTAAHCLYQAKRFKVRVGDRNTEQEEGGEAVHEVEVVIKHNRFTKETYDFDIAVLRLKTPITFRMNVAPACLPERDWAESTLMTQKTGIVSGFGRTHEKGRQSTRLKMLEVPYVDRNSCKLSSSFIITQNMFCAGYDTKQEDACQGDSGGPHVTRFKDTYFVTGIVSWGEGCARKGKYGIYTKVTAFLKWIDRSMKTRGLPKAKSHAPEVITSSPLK

[
  {
    "Protein": "FIXa-D104N/K106S/R318Y/R338E/R403E/E410N (protein) chain 1: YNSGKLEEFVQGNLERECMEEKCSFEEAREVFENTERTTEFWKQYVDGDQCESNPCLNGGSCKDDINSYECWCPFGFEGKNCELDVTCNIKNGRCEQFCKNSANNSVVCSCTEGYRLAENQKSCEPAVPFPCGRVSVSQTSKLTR chain 2: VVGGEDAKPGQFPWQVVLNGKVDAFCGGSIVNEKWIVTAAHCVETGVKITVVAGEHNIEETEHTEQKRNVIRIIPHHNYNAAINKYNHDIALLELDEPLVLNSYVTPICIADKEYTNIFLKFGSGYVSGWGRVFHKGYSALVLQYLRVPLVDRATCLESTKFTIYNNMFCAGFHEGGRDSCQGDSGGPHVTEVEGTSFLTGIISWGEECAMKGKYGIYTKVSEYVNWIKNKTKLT",
    "KM": "0.0385 µM"
  },
  {
    "Protein": "FIXa-D104N/K106S/K247N/N249S/R318Y/R338E/R403E/E410N (protein) chain 1: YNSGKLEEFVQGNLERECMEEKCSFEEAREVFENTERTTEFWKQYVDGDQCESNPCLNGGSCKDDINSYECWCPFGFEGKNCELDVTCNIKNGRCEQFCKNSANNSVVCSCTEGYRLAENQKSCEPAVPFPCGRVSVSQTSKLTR chain 2: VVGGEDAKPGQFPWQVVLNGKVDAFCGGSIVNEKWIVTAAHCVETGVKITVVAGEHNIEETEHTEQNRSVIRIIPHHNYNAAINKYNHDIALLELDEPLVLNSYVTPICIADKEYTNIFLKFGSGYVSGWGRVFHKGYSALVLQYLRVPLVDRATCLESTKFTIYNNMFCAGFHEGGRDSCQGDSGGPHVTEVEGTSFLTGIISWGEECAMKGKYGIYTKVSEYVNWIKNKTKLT",
    "KM": "0.059 µM"
  }
]
